Target: T1, human 5T4ECDHis (mature protein of SEQ ID NO: 99) (human, UniProt Q13641 32-355)
T1 construct: ECD of human 5T4 (aa 1-355 of Uniprot Q13641) with C-terminal His tag; residues 1-31 are the signal peptide; also called ECD of human 5T4 with a C-terminal His tag
T1 sequence: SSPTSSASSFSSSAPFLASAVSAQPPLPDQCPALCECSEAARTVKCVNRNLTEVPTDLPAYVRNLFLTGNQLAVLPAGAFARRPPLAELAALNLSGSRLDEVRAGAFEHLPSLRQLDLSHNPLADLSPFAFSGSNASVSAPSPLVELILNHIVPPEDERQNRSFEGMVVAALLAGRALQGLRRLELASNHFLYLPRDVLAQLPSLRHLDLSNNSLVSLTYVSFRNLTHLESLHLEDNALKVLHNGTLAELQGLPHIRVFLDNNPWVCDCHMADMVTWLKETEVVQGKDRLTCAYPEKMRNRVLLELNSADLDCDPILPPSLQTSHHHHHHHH
Experiment: BLI cross-block; competitor (immobilised): IgG1-5T4-226-FEAR
readout.name: corrected association response (nm)
One number for each entry, in nm.

Reference set, count: 2
- binder: "IgG1-5T4-076-FEAR (antibody, V domains shown, Monospecific, bivalent human IgG1 kappa with L234F, L235E, D265A, K409R (FEAR)) VH: QVQLVQSGAEVKKPGASVKVSCKASGYTFTSYGISWVRQAPGQGLEWMGWISAYNGNTNYAQKLQGRVTMTTDTSTRTAYMELRSLRSDDTAVYYCARDPGYFDWLYGDYWGQGTLVTVSS VL: AIQLTQSPSSLSASVGDRVTITCRASQGISSALAWYQQKPGKAPKLLIYDASSLESGVPSRFSGSGSGTDFTLTISSLQPEDFATYYCQQFNSYPRTFGQGTKVEIK"
  readout.name: "corrected association response"
  recorded.result: 1.47
- binder: "IgG1-5T4-085-FEAR (antibody, V domains shown, Monospecific, bivalent human IgG1 kappa with L234F, L235E, D265A, K409R (FEAR)) VH: EVQLLESGGGLVQPGGSLRLSCAASGFTFSSYAMSWVRQAPGKGLEWVSAISGSGGSTYNADSVKGRFTIFRDNSKNTLYLHMNSLRAEDTAVYYCARDPGYNNVEYLDHWGQGTLVTVSS VL: AIQLTQSPSSLSASVGDRVTITCRASQGISSALAWYQQKPGKAPKLLIYDASSLESGVPSRFSGSGSGTDFTLTISSLQPEDFATYYCQQFNSYPLTFGGGTKVEIK"
  readout.name: "corrected association response"
  recorded.result: 1.35

What value of measured corrected association response is listed for IgG1-5T4-226-FEAR (antibody, V domains shown, Monospecific, bivalent human IgG1 kappa with L234F, L235E, D265A, K409R (FEAR); also called IgG1-5T4-226-FEAR-FITC) VH: QVQLQQWGAGLLKPSETLSLTCAVYGGSFSGYYWSWIRQPPGKGLEWIGEIDHSGSTNYNPSLKSRVTISVDTSKNQFSLKLSSVTAADTAVYYCAAWFGELWDYYYGMDVWGQGTTVTVSS VL: EIVLTQSPATLSLSPGERATLSCRASQSVSSFLAWYQQKPGQAPRLLIYDASNRATGIPARFSGSGSGTDFTLTISSLEPEDFAVYYCQQRSNWPLTFGQGTRLEIK ? -0.02
